assay.info: self-splicing fitness, log relative to wild type (ln ratio); higher = more splicing; Tetrahymena group I intron in knt gene, E. coli kanamycin selection, DiMSum; sequences stand for … in CUCUCU…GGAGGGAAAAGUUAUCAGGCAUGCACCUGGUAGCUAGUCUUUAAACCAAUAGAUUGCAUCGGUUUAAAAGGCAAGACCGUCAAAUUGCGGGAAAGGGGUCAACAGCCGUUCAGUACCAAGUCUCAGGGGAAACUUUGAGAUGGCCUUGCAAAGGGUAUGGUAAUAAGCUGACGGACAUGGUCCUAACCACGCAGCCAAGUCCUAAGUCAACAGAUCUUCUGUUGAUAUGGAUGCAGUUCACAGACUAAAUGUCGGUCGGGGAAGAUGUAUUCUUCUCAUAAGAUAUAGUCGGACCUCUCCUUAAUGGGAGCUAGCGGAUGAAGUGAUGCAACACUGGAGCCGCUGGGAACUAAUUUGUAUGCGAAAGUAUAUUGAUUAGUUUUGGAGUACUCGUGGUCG;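 note: selection with 25 µg/mL kanamycin versus none on LB agar overnight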
test.conditions: 30 °C
measurement.name: self-splicing fitness (ln)
Write the value as a bare number.

Inquiry: What does the data say about its self-splicing fitness (ln)? Entry: UCCGAGCAAUAUUACGGCUA
Reply text: -0.436

Inquiry: Another sequence to look at: CAAUAGCAAUAUUACGUCCU
Reply text: -3.78

Inquiry: Cool, now AUGGAGCAAUAUUACGACGC
Reply text: -1.44

Inquiry: Record: CACAAGCAAUAUUACGUGUG
Reply text: -3.65

Inquiry: Same question for GAUUAGCAAUAUUACGCUGA please.
Reply text: -3.17

Inquiry: Param item: CCGAAGCAAUAUUACGGCUC
Reply text: -3.57

Inquiry: And what about the sequence CGAUAGCAAUAUUACGGAGC ?
Reply text: -3.91

Inquiry: Then GUUGAGCAAUAUUACGAGUC ?
Reply text: -3.09

Inquiry: Please do the same for GAAGAGCAAUAUUACGUGCG as well.
Reply text: -2.87

Inquiry: Item: CCUGAGCAAUAUUACGUGGA
Reply text: -3.5

Inquiry: Similarly, CGGUAGCAAUAUUACGUCUG ?
Reply text: -0.631

Inquiry: Proceed to UCAAAGCAAUAUUACGGUAC
Reply text: -3.28

Inquiry: Please give the result for ACACAGCAAUAUUACGACAU too.
Reply text: -0.676

Inquiry: One more sequence: ACGAAGCAAUAUUACGUGCG
Reply text: -1.35

Inquiry: Thanks! And GCCCAGCAAUAUUACGUUCC ?
Reply text: -1.28

Inquiry: How about this sequence: UCAUAGCAAUAUUACGUCCA
Reply text: -1.07

----------
assay.info: self-splicing fitness, log relative to wild type (ln ratio); higher = more splicing; Tetrahymena group I intron in knt gene, E. coli kanamycin selection, DiMSum; sequences stand for … in CUCUCU…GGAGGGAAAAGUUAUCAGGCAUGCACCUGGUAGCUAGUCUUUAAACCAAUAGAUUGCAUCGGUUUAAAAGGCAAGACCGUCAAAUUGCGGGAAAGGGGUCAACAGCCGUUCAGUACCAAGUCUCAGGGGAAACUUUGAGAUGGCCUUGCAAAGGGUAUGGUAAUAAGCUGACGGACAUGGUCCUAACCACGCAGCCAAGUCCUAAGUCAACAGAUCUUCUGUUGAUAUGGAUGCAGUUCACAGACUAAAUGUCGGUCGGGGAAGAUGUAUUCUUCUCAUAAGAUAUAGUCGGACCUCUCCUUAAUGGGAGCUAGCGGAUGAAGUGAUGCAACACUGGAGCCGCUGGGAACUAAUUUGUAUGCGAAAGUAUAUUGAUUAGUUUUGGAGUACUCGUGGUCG
test.conditions: 30 °C
So basically: self-splicing fitness (ln) at -3 or higher? That is Criterion met. Lower than -3? That is Criterion not met.

Inquiry: Dear colleague, could you confirm whether GCUGAGCAAUAUUACGGAAU has self-splicing fitness (ln) at or above -3?
Reply text: Criterion not met

Inquiry: And what about the sequence AAGAAGCAAUAUUACGGCCG ?
Reply text: Criterion met

Inquiry: Param item: GGAGAGCAAUAUUACGAUUU
Reply text: Criterion met

Inquiry: And then AAGGAGCAAUAUUACGUCUC , what is it?
Reply text: Criterion met

Inquiry: UCCCAGCAAUAUUACGCGGA , same question.
Reply text: Criterion met

Inquiry: Then what about the sequence ACGUAGCAAUAUUACGUAUC ?
Reply text: Criterion not met

Inquiry: Also GAAAAGCAAUAUUACGACUC , if possible.
Reply text: Criterion met

Inquiry: Another sequence to check: GAGAAGCAAUAUUACGGGAA
Reply text: Criterion met

Inquiry: Next: UUCGAGCAAUAUUACGGCGA
Reply text: Criterion met

Inquiry: Please answer likewise for CGCAAGCAAUAUUACGAACU
Reply text: Criterion met

Inquiry: Moving on to CUAGAGCAAUAUUACGGAAG
Reply text: Criterion met

Inquiry: Entry UUUGAGCAAUAUUACGUAAU please
Reply text: Criterion not met

Inquiry: Try the sequence UAAUAGCAAUAUUACGCUUG
Reply text: Criterion met

Inquiry: Okay, and CGUGAGCAAUAUUACGCUAU ?
Reply text: Criterion met

Inquiry: Could you do the same for UUUCAGCAAUAUUACGGAGA , please?
Reply text: Criterion met

Inquiry: Entry CAGUAGCAAUAUUACGUAGC please
Reply text: Criterion not met

Inquiry: Next record, please: UGCAAGCAAUAUUACGUACC
Reply text: Criterion met

Inquiry: Likewise for GAACAGCAAUAUUACGAUUA ?
Reply text: Criterion met

Inquiry: Next sequence: GCCUAGCAAUAUUACGCACA
Reply text: Criterion met

Inquiry: Further, for GAGAAGCAAUAUUACGAGCU ?
Reply text: Criterion met

Inquiry: Please answer likewise for CCCAAGCAAUAUUACGGUCU
Reply text: Criterion not met

Inquiry: Similarly, UGAGAGCAAUAUUACGCGAA ?
Reply text: Criterion not met

Inquiry: # iterate: UGGUAGCAAUAUUACGGUGA
Reply text: Criterion met

Inquiry: Next sequence up: GCUAAGCAAUAUUACGGCUG
Reply text: Criterion met

Inquiry: Further, for GGUUAGCAAUAUUACGUAUU ?
Reply text: Criterion met

Inquiry: Try the sequence AACUAGCAAUAUUACGAUGC
Reply text: Criterion met

Inquiry: Further, for CCAAAGCAAUAUUACGGCCG ?
Reply text: Criterion met

Inquiry: Next sequence: ACCCAGCAAUAUUACGGACG
Reply text: Criterion met

Inquiry: Similarly, UUGAAGCAAUAUUACGCAAC ?
Reply text: Criterion met

Inquiry: // repeat for CAUGAGCAAUAUUACGUCCG and report
Reply text: Criterion met

Inquiry: Next entry: UAUUAGCAAUAUUACGUGGA
Reply text: Criterion met

Inquiry: Same question for UGGCAGCAAUAUUACGCAAU please.
Reply text: Criterion met

Inquiry: Next: CUGUAGCAAUAUUACGUGCA
Reply text: Criterion met

Inquiry: Could you do the same for AACUAGCAAUAUUACGGAUA , please?
Reply text: Criterion met

Inquiry: // next record AUCCAGCAAUAUUACGGGAC
Reply text: Criterion not met

Inquiry: Same lookup for CUAAAGCAAUAUUACGCCGC , please.
Reply text: Criterion met

Inquiry: Field entry: GAAGAGCAAUAUUACGGUGA
Reply text: Criterion met

Inquiry: Here is the next sequence: GCAGAGCAAUAUUACGGGUA
Reply text: Criterion not met

Inquiry: Next up: GCGGAGCAAUAUUACGCUCA
Reply text: Criterion met

Inquiry: Another sequence to check: CGAGAGCAAUAUUACGAUAA
Reply text: Criterion not met

Inquiry: Ok, now GAGAAGCAAUAUUACGUCAC
Reply text: Criterion not met

Inquiry: // same read-out, input: AACUAGCAAUAUUACGCUUA
Reply text: Criterion met

Inquiry: How about this sequence: AUUAAGCAAUAUUACGUGAC
Reply text: Criterion not met

Inquiry: Consider next the sequence GGUAAGCAAUAUUACGAGCG in the same way.
Reply text: Criterion met

Inquiry: Same thing, different sequence: GUGUAGCAAUAUUACGCUUA
Reply text: Criterion met

Inquiry: Record: CUUGAGCAAUAUUACGGAGU
Reply text: Criterion met

Inquiry: Entry to check: ACACAGCAAUAUUACGGACG
Reply text: Criterion met

Inquiry: CCCCAGCAAUAUUACGAAAG ?
Reply text: Criterion not met

Inquiry: Ok, now UAUUAGCAAUAUUACGAUCA
Reply text: Criterion met

Inquiry: // query: UUUAAGCAAUAUUACGGCCG
Reply text: Criterion met

Inquiry: Now try UUUAAGCAAUAUUACGUUUU .
Reply text: Criterion not met

Inquiry: What about UUCAAGCAAUAUUACGGUAG ?
Reply text: Criterion met

Inquiry: Same for CGCGAGCAAUAUUACGGGAG
Reply text: Criterion not met

Inquiry: Can you handle UCGUAGCAAUAUUACGAAGA next?
Reply text: Criterion not met

Inquiry: Next up: UCGCAGCAAUAUUACGUUUU
Reply text: Criterion not met

Inquiry: Would you kindly repeat that for ACUGAGCAAUAUUACGGUCG ?
Reply text: Criterion not met

Inquiry: Moving on to the next sequence: UUGGAGCAAUAUUACGCUCC
Reply text: Criterion met

Inquiry: Quick one: ACGUAGCAAUAUUACGAUUC
Reply text: Criterion met

Inquiry: Further, for GGGUAGCAAUAUUACGAAUU ?
Reply text: Criterion met

Inquiry: Would you kindly repeat that for UUGUAGCAAUAUUACGAGUC ?
Reply text: Criterion not met

Inquiry: How about CCAGAGCAAUAUUACGGUAG ?
Reply text: Criterion met

Inquiry: And for AGUUAGCAAUAUUACGCUAU ?
Reply text: Criterion met

Inquiry: Again, but for UAGUAGCAAUAUUACGAGUA
Reply text: Criterion met
